For each record, write down the corresponding Perturb-seq pooled growth sgRNA counts, d5.
system: K562 CRISPRi cells; assay: Perturb-seq pooled growth measurement (sgRNA counts, growth phenotype γ, relative activity); format: cell-based, human; conditions: sequencing read counts; 5 days of growth (day seven after transduction)

Solved entries:
[
  {
    "substance": "HSPA5_+_128003624.23-P1P2_06: sgRNA targeting HSPA5, GAGCCGAGTAGACGACGGTG, SEQ ID NO: 92 (listed as DNA, chemistry not fully specified)",
    "measured": 17649
  },
  {
    "substance": "RPL9_+_39460483.23-P1P2_05: sgRNA targeting RPL9, GGATGTTTCGGTGCTCGTGG, SEQ ID NO: 52 (listed as DNA, chemistry not fully specified)",
    "measured": 2217
  },
  {
    "substance": "HSPE1_+_198365089.23-P1P2_03: sgRNA targeting HSPE1, GGTGACTCGCAGTCCGGCCC, SEQ ID NO: 66 (listed as DNA, chemistry not fully specified)",
    "measured": 3034
  },
  {
    "substance": "HSPA9_−_137911079.23-P1P2_02: sgRNA targeting HSPA9, GGAGTTGCGCGATGCGGTGG, SEQ ID NO: 133 (listed as DNA, chemistry not fully specified)",
    "measured": 1727
  }
]

Next:
Field: Perturb-seq pooled growth sgRNA counts, d5 (K562 CRISPRi cells). Entry: GATA1_−_48645022.23-P1P2_04: sgRNA targeting GATA1, GTGAGCTTACCACATCCCCA, SEQ ID NO: 121 (listed as DNA, chemistry not fully specified)
860

---

system: K562 CRISPRi cells; experiment: Perturb-seq pooled growth measurement (sgRNA counts, growth phenotype γ, relative activity); type: cell-based, human; conditions: sequencing read counts; 5 days of growth (day seven after transduction)
readoutName: Perturb-seq pooled growth sgRNA counts, d5
One number for each entry.

// worked examples, Perturb-seq pooled growth sgRNA counts, d5 included
[
  {
    "substance": "RPS14_+_149829238.23-P1P2_04: sgRNA targeting RPS14, GAGGCCCGCGCGCGACAATC, SEQ ID NO: 48 (listed as DNA, chemistry not fully specified)",
    "testedOn": "K562 CRISPRi cells",
    "measured": 9641
  },
  {
    "substance": "ALDOA_+_30077139.23-P1P2_07: sgRNA targeting ALDOA, GGTCACCAGGCCCCCTTCTG, SEQ ID NO: 158 (listed as DNA, chemistry not fully specified)",
    "testedOn": "K562 CRISPRi cells",
    "measured": 4284
  }
]

Kindly consider the entry below.
State the recorded Perturb-seq pooled growth sgRNA counts, d5 for this entry: POLR2H_+_184081251.23-P1P2_07: sgRNA targeting POLR2H, GGGGCCACGAGTGCAGCAGA, SEQ ID NO: 118 (listed as DNA, chemistry not fully specified)
6381
